- protocol: ATG_FoxO_CIS: Attagene CIS-FACTORIAL HepG2 Assay for human Forkhead box O (FoxO) (AID 2282943)
- particulars: HepG2 Attagene cis-reporter, FoxO element, mRNA; actives raise or lower the signal
Active and inactive are the calls of the source. The calls were made as follows: active = hit-call score of the fitted dose curve at least 0.9, where 1 is the maximum; inactive = score below 0.9.
Can you answer with just one of these options? active, inactive

# outcome recorded in this test, key = "O=S(=O)(O)c1ccc2cc(O)c(S(=O)(=O)O)cc2c1" inactive

# outcome recorded in this test, key = CC(CC=O)CCCC(C)(C)O (stereo not given) inactive

# outcome recorded in this test, key = "COc1ccc2nc(N)sc2c1" inactive

# outcome recorded in this test, key = "Cc1cccc(C(=O)O)c1" inactive

# outcome recorded in this test, key = "CC(=O)OC(C)C" inactive

# outcome recorded in this test, key = "Cc1c(C)c([N+](=O)[O-])c(C(C)(C)C)c([N+](=O)[O-])c1C" inactive

# outcome recorded in this test, key = "COC(=O)c1ccc2cc(C(=O)OC)ccc2c1" inactive

# outcome recorded in this test, key = "CCOC(=O)[C@H](C)O" inactive

# outcome recorded in this test, key = CC(C)=CC1CC(C)CCO1 (stereo not given) inactive

# outcome recorded in this test, key = "O=C1CCCC(=O)O1" inactive
